Can you tell me IC50 for the items I'm about to list?
tgt: CyclinE1/CDK2 (Homo sapiens)
Construct: purchased Eurofins, discovery 14-475
protocolDescription: Fluorescence Polarization (FP) competitive binding assay, Cyclin E1/Cdk2;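 further: readings taken after two-hour equilibration at room temperature in HEPES buffer with NaCl, DTT, NP-40 and BSA, IC50 fitted from eight-concentration serial dilution series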
settings: 10 nM Cyclin E1/Cdk2, 2 nM FAM probe; average of 2-3 independent experiments; read-out: Cyclin E FP IC50
*1 amine or outer side, *2 acyl side, *3 side chain or, on linkers, in order; H or OH if unused. Where a SMILES comes first, the peptide text is derived from it. Bridges are numbered along the chain shown (N, C = ends). [ ]: non-standard residue; d: D form. The star is where a group is joined. NMePhe(2-(4-MorPh),5-Cl) = CN[C@@H](Cc1cc(Cl)ccc1-c1ccc(N2CCOCC2)cc1)C(=O)O; X119 = CC(=O)N1C2C=C(c3ccc(F)cc3C[C@@H](C(=O)[*:2])N(C)[*:1])CC1COC2; NMehhhLys(Me) = CN([C@@H](CCCCCCCN(C)[*:3])C(=O)[*:2])[*:1]; cBuCO(3,3-F2-1-CF3) = O=C(C1(C(F)(F)F)CC(F)(F)C1)*; Pro(trans-4-F) = O=C(O)[C@@H]1C[C@@H](F)CN1; Gly(cPr) = N[C@H](C(=O)O)C1CC1; X20 = O=C(C1(Cl)CC1)*
The reply should read as a number followed by its unit.

Solved entries (count: 2):
INSERT INTO measurements (molecule, tgt, result) VALUES
  ('CC(C)C[C@@H]1NC(=O)[C@@H](N(C)C(=O)[C@@H](NC(=O)[C@@H]2C[C@@H](F)CN2C(=O)C2(Cl)CC2)C2CC2)CCCCCCCN(C)C(=O)[C@H](Cc2cc(Cl)ccc2-c2ccc(N3CCOCC3)cc2)N(C)C1=O [Example 398] (X20-[Pro(trans-4-F)][Gly(cPr)][NMehhhLys(Me)]L[NMePhe(2-(4-MorPh),5-Cl)]; lactam 3-C)', 'CyclinE1/CDK2 (Homo sapiens)', '590 nM'),
  ('CC(C)C[C@@H]1NC(=O)[C@@H](N(C)C(=O)[C@@H](NC(=O)[C@@H]2C[C@@H](F)CN2C(=O)C2(C(F)(F)F)CC(F)(F)C2)C2CC2)CC=CCCCCNC(=O)[C@H](Cc2cc(Cl)ccc2C2=CCN(C(=O)C3CC3)CC2)N(C)C1=O', 'CyclinE1/CDK2 (Homo sapiens)', '5410 nM');

Recorded IC50 (molecule CC(=O)N1C2C=C(c3ccc(F)cc3C[C@H]3C(=O)N(C)CCCCCCC[C@H](N(C)C(=O)[C@@H](NC(=O)[C@@H]4C[C@@H](F)CN4C(=O)C4(C(F)(F)F)CC(F)(F)C4)C4CC4)C(=O)N[C@@H](CC(C)C)C(=O)N3C)CC1COC2 (stereo partly drawn) [Example 124] ({cBuCO(3,3-F2-1-CF3)}-[Pro(trans-4-F)][Gly(cPr)][NMehhhLys(Me)]L[X119]; lactam 3-C) ): 540 nM
